Target: T1, human CD45RC (human, UniProt P08575 26-1306)
T1 construct: Native protein on human blood leukocytes / PBMC / T cells of healthy volunteers; also called hCD45RC
T1 sequence: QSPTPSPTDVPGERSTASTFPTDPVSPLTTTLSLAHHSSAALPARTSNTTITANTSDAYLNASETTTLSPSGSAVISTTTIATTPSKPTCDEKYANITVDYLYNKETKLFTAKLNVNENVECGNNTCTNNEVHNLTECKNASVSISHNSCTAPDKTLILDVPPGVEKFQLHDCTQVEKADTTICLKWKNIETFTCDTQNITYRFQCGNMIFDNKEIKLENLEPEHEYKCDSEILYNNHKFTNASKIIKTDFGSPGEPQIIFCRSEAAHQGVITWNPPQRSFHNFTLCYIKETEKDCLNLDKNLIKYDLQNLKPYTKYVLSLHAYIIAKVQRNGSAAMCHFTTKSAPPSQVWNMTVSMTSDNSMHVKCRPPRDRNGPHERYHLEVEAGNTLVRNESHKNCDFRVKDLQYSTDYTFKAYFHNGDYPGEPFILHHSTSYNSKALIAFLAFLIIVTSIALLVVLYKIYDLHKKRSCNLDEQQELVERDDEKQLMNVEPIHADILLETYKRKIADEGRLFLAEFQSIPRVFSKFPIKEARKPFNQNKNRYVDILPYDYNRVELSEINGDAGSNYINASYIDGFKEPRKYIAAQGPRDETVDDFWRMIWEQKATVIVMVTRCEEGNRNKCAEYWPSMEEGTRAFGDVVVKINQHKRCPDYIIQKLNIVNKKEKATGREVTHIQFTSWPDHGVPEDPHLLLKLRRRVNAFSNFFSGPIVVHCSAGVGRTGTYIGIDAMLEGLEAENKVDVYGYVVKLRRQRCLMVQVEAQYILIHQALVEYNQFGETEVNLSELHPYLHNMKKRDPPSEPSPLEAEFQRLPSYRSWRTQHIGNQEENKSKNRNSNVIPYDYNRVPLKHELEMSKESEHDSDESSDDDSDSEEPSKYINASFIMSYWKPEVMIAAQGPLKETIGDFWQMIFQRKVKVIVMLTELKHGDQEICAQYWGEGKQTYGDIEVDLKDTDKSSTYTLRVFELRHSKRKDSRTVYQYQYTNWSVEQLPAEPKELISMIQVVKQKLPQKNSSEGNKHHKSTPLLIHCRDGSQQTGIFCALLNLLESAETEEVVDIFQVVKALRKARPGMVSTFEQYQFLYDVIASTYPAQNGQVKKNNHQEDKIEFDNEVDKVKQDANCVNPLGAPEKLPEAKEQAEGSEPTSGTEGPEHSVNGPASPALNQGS
Assay: flow cytometry on T cells of human PBMC; biotin anti-human IgG + streptavidin PerCP-Cy5.5
measured_quantity: % of T cells in the CD45RC gate at 1 µg/mL (%)
Numbers only; they are read as %.

The binder listed as Anti-45RC Variant C (antibody, human IgG1, kappa, V domains shown, also called humanized ABIS-45RC variant C) VH: QVQLVQSGAEVKKPGASVKVSCKASGYTFTNYYIGWVRQAPGQGLEWIGDIFPGGDYANSNEKFKGRVTLTADTSISTAYMELSRLRSDDTVVYYCVRRNFDYWGQGTLVTVSS VL: EIVLTQSPATLSLSPGERATLSCSASSSVSYMHWFQQKPGQAPRLWIYNTSNLPSGIPARFSGSGSGTDYTLTISSLEPEDFAVYYCQQRSSYPLTFGGGTKVEIKR has a reported % of T cells in the CD45RC gate at 1 µg/mL of 63.3

The binder listed as Anti-45RC Variant B (antibody, human IgG1, kappa, V domains shown, also called humanized ABIS-45RC variant B) VH: QVQLVQSGAEVKKPGASVKVSCKASGYTFTNYYIGWVRQAPGQGLEWIGDIFPGGDYANSNEKFKGRVTLTADTSISTAYMELSRLRSDDTVVYYCVRRNFDYWGQGTLVTVSS VL: EIVLTQSPDFQSVTPKEKVTITCSASSSVSYMHWFQQKPDQSPKLWIYNTSNLPSGVPSRFSGSGSGTDYTLTINSLEAEDAATYYCQQRSSYPLTFGGGTKVEIKR has a reported % of T cells in the CD45RC gate at 1 µg/mL of 43.9

The binder listed as Anti-45RC Variant D (antibody, human IgG1, kappa, V domains shown, also called humanized ABIS-45RC variant D) VH: EVQLVQSGAEVKKPGESLKISCKASGYTFTNYYIGWVRQMPGKGLEWIGDIFPGGDYANSNEKFKGQVTLSADKSISTAYLQLSSLKASDTAMYYCVRRNFDYWGQGTLVTVSS VL: DIQLTQSPSFLSASVGDRVTITCSASSSVSYMHWFQQKPGKAPKLWIYNTSNLPSGVPSRFSGSGSGTEYTLTISSLQPEDFATYYCQQRSSYPLTFGGGTKVEIKR has a reported % of T cells in the CD45RC gate at 1 µg/mL of 57.2
